Test system: K24384-001-R-PDC complex spheroids, viability
MEASUREMENT PROTOCOL: Anticancer human tumor K24384-001-R-PDC patient-derived pancreatic adenocarcinoma cell line growth inhibition [GQUAD]
APPLIED CONDITIONS: second compound 3.16 µM; first compound 0.1 µM; stronger effect = lower value
VALUE TYPE: viability, T/C (%)
Report the figure in % without appending any unit label.

Solved entries (count: 4):
# COMPOUND, viability, T/C (%)
measured = [
    ("CC1COCCN1c1cc(-c2ccnn2C)c2ccnc(-c3ccn[nH]3)c2n1 (stereo not given) + Cc1[nH]c2ccc(F)cc2c1-c1nc2c3cccnc3c3ncccc3c2[nH]1", 48.1),
    ("CC1COCCN1c1cc(C2(S(C)(=N)=O)CC2)nc(-c2ccnc3[nH]ccc23)n1 (stereo not given) + Cc1cnc(CNC(=O)c2c(=O)c3ccc(N4CCCN(C)CC4)nc3n3c2sc2ccccc23)cn1", 50.4),
    ("C=CC(=O)N1CCN(c2nc(=O)n(-c3c(C)ccnc3C(C)C)c3nc(-c4c(O)cccc4F)c(F)cc23)C(C)C1 (stereo not given) + Cc1cnc(CNC(=O)c2c(=O)c3ccc(N4CCCN(C)CC4)nc3n3c2sc2ccccc23)cn1", 48.6),
    ("CC1COCCN1c1cc(C2(S(C)(=N)=O)CC2)nc(-c2ccnc3[nH]ccc23)n1 (stereo not given) + CN(C)c1ccc(Nc2c3ccc(NC(=O)CCN4CCCC4)cc3nc3cc(NC(=O)CCN4CCCC4)ccc23)cc1", 98.6),
]

Return viability, T/C for the following compound: C#Cc1c(F)ccc2cc(O)cc(-c3ncc4c(N5CC6CCC(C5)N6)nc(OCC56CCCN5CC(F)C6)nc4c3F)c12 (stereo not given) + Cc1[nH]c2ccc(F)cc2c1-c1nc2c3cccnc3c3ncccc3c2[nH]1
87.6

Specify measured viability, T/C for CC(=O)O[C@H]1C(=O)[C@@]2(C)[C@H]([C@H](OC(=O)c3ccccc3)[C@]3(O)C[C@H](OC(=O)[C@H](O)[C@@H](NC(=O)c4ccccc4)c4ccccc4)C(C)=C1C3(C)C)[C@]1(OC(C)=O)CO[C@@H]1C[C@@H]2O + Cc1cnc(CNC(=O)c2c(=O)c3ccc(N4CCCN(C)CC4)nc3n3c2sc2ccccc23)cn1 .
33.5

Name the recorded viability, T/C of the compound listed here: Cc1cccc(N(C)C(=O)C2C(O)CCN2c2nc(C)cc(C(F)(F)F)c2C#N)c1 (stereo not given) + Cc1cnc(CNC(=O)c2c(=O)c3ccc(N4CCCN(C)CC4)nc3n3c2sc2ccccc23)cn1
42

---

Some compounds, each annotated with its measured IC50.
Tested on: K24384-001-R-PDC complex spheroids, viability
MEASUREMENT PROTOCOL: Anticancer human tumor K24384-001-R-PDC cell line growth inhibition [GQUAD];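 also: spheroids exposed to compounds for seven days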
APPLIED CONDITIONS: curve of first compound; second compound 3.16 µM

# COMPOUND, VALUE TYPE, VALUE REPORTED
records = [
    ("C=CC(=O)N1CCN(c2nc(=O)n(-c3c(C)ccnc3C(C)C)c3nc(-c4c(O)cccc4F)c(F)cc23)C(C)C1 (stereo not drawn) + Cc1cnc(CNC(=O)c2c(=O)c3ccc(N4CCCN(C)CC4)nc3n3c2sc2ccccc23)cn1", "IC50", "< 31.6 nM"),
    ("CCc1c2c(nc3ccc(O)cc13)-c1cc3c(c(=O)n1C2)COC(=O)[C@]3(O)CC + CN(C)c1ccc(Nc2c3ccc(NC(=O)CCN4CCCC4)cc3nc3cc(NC(=O)CCN4CCCC4)ccc23)cc1", "IC50", "3.47 nM"),
]

Let me know recorded IC50 for O=C(c1cc(Cc2n[nH]c(=O)c3ccccc23)ccc1F)N1CCN(C(=O)C2CC2)CC1 + Cc1cnc(CNC(=O)c2c(=O)c3ccc(N4CCCN(C)CC4)nc3n3c2sc2ccccc23)cn1 , thanks.
< 31.6 nM

---

# reported viability, T/C; entries follow
Tested on: K24384-001-R-PDC complex spheroids, viability
MEASUREMENT PROTOCOL: Anticancer human tumor K24384-001-R-PDC cell line growth inhibition [GQUAD];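 also: spheroids exposed to compounds for seven days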
APPLIED CONDITIONS: second compound 3.16 µM; first compound 10 µM; stronger effect = lower value
Number only, in %; omit the unit.

Worked examples follow.
# COMPOUND, VALUE REPORTED
measured = [
    ("O=C(c1cc(Cc2n[nH]c(=O)c3ccccc23)ccc1F)N1CCN(C(=O)C2CC2)CC1 + Cc1[nH]c2ccc(F)cc2c1-c1nc2c3cccnc3c3ncccc3c2[nH]1", 67.3),
    ("COc1ncnc(C2CC2)c1-c1ncc2cnn(Cc3ccc(-c4nc(C(F)(F)F)cn4C(C)C)cc3)c2n1 + Cc1[nH]c2ccc(F)cc2c1-c1nc2c3cccnc3c3ncccc3c2[nH]1", 84.1),
    ("COc1cc(C2c3cc4c(cc3C(OC3OC5COC(C)OC5C(O)C3O)C3COC(=O)C23)OCO4)cc(OC)c1O (stereo not given) + Cc1cnc(CNC(=O)c2c(=O)c3ccc(N4CCCN(C)CC4)nc3n3c2sc2ccccc23)cn1", 26),
    ("COc1cccc2c1C(=O)c1c(O)c3c(c(O)c1C2=O)CC(O)(C(=O)CO)CC3OC1CC(N)C(O)C(C)O1 (stereo not given) + CN(C)c1ccc(Nc2c3ccc(NC(=O)CCN4CCCC4)cc3nc3cc(NC(=O)CCN4CCCC4)ccc23)cc1", 5.1),
]

Kindly consider the entry below.
Return value of viability, T/C for input CC(=O)O[C@H]1C(=O)[C@@]2(C)[C@H]([C@H](OC(=O)c3ccccc3)[C@]3(O)C[C@H](OC(=O)[C@H](O)[C@@H](NC(=O)c4ccccc4)c4ccccc4)C(C)=C1C3(C)C)[C@]1(OC(C)=O)CO[C@@H]1C[C@@H]2O + CN(C)c1ccc(Nc2c3ccc(NC(=O)CCN4CCCC4)cc3nc3cc(NC(=O)CCN4CCCC4)ccc23)cc1 , no commentary.
30.1

---

Tested on: K24384-001-R-PDC complex spheroids, viability
MEASUREMENT PROTOCOL: Anticancer human tumor K24384-001-R-PDC cell line growth inhibition [GQUAD];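 also: spheroids exposed to compounds for seven days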
APPLIED CONDITIONS: second compound 3.16 µM; first compound 10 µM; stronger effect = lower value
VALUE TYPE: viability, T/C (%)
Express your answer in %, writing the number without its unit.

Please review the entries below; each comes with its answer.
# MOLECULE, SUBJECT OF TEST, viability, T/C (%)
records = [
    ("CCCS(=O)(=O)Nc1ccc(F)c(C(=O)c2c[nH]c3ncc(-c4ccc(Cl)cc4)cc23)c1F + Cc1[nH]c2ccc(F)cc2c1-c1nc2c3cccnc3c3ncccc3c2[nH]1", "K24384-001-R-PDC complex spheroids, viability", 11.3),
    ("O=C(c1cc(Cc2n[nH]c(=O)c3ccccc23)ccc1F)N1CCN(C(=O)C2CC2)CC1 + CN(C)c1ccc(Nc2c3ccc(NC(=O)CCN4CCCC4)cc3nc3cc(NC(=O)CCN4CCCC4)ccc23)cc1", "K24384-001-R-PDC complex spheroids, viability", 62.2),
    ("O=C(NO)c1cnc(N2CCN(S(=O)(=O)c3ccc4ccccc4c3)CC2)nc1 + Cc1[nH]c2ccc(F)cc2c1-c1nc2c3cccnc3c3ncccc3c2[nH]1", "K24384-001-R-PDC complex spheroids, viability", 0.14),
    ("O=C(NO)c1cnc(N2CCN(S(=O)(=O)c3ccc4ccccc4c3)CC2)nc1 + Cc1cnc(CNC(=O)c2c(=O)c3ccc(N4CCCN(C)CC4)nc3n3c2sc2ccccc23)cn1", "K24384-001-R-PDC complex spheroids, viability", 0.14),
    ("C=CCn1c(=O)c2cnc(Nc3ccc(N4CCN(C)CC4)cc3)nc2n1-c1cccc(C(C)(C)O)n1 + Cc1cnc(CNC(=O)c2c(=O)c3ccc(N4CCCN(C)CC4)nc3n3c2sc2ccccc23)cn1", "K24384-001-R-PDC complex spheroids, viability", 15.8),
]

Read off the recorded viability, T/C for CC1COCCN1c1cc(C2(O)CC3CCC(C2)O3)c2cnn(-c3ccn[nH]3)c2n1 (configuration not stated) + Cc1cnc(CNC(=O)c2c(=O)c3ccc(N4CCCN(C)CC4)nc3n3c2sc2ccccc23)cn1
8.63

Supply measured viability, T/C of C=CC(=O)N1CCN(c2nc(=O)n(-c3c(C)ccnc3C(C)C)c3nc(-c4c(O)cccc4F)c(F)cc23)C(C)C1 (configuration not stated) + Cc1cnc(CNC(=O)c2c(=O)c3ccc(N4CCCN(C)CC4)nc3n3c2sc2ccccc23)cn1 in your reply.
37.5

Assign viability, T/C to the following record: CC(C)n1c(=O)n(C)c2cnc3cc(F)c(-c4ccc(OCCCN5CCCCC5)nc4)cc3c21 + Cc1[nH]c2ccc(F)cc2c1-c1nc2c3cccnc3c3ncccc3c2[nH]1
83.3

Quote viability, T/C reported for CC1COCCN1c1cc(C2(O)CC3CCC(C2)O3)c2cnn(-c3ccn[nH]3)c2n1 (configuration not stated) + CN(C)c1ccc(Nc2c3ccc(NC(=O)CCN4CCCC4)cc3nc3cc(NC(=O)CCN4CCCC4)ccc23)cc1 please.
12.9
